test target: ABCG2 (Homo sapiens)
Sequence (Q9UNQ0 whole entry): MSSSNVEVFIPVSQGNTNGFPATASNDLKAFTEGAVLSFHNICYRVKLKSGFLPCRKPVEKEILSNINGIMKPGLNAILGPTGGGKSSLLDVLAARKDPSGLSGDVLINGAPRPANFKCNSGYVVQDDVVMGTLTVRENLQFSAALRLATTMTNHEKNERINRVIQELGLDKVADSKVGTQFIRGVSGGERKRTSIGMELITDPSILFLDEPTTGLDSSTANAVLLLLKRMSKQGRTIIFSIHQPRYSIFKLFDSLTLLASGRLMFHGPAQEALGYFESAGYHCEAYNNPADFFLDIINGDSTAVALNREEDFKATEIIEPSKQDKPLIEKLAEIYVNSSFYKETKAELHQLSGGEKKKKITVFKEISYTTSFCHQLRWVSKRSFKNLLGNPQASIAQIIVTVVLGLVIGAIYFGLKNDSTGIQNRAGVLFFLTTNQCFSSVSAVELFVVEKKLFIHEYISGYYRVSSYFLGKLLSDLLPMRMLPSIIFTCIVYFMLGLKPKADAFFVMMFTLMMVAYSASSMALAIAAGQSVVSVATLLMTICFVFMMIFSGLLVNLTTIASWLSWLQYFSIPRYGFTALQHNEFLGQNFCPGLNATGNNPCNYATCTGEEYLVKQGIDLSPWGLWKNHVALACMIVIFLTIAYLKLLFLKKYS
assay summary: vanadate-sensitive ATPase stimulation in insect cell membranes expressing ABCG2
outcome measure: EC50

EC50 in this record for `Cn1cc(-c2cc3c(N4CCN(c5ncc([C@@](C)(N)c6ccc(F)cc6)cn5)CC4)ncnn3c2)cn1` : ~200 nM

====

test target: ABCB1 (Homo sapiens, UniProt P08183)
Sequence (P08183 whole entry): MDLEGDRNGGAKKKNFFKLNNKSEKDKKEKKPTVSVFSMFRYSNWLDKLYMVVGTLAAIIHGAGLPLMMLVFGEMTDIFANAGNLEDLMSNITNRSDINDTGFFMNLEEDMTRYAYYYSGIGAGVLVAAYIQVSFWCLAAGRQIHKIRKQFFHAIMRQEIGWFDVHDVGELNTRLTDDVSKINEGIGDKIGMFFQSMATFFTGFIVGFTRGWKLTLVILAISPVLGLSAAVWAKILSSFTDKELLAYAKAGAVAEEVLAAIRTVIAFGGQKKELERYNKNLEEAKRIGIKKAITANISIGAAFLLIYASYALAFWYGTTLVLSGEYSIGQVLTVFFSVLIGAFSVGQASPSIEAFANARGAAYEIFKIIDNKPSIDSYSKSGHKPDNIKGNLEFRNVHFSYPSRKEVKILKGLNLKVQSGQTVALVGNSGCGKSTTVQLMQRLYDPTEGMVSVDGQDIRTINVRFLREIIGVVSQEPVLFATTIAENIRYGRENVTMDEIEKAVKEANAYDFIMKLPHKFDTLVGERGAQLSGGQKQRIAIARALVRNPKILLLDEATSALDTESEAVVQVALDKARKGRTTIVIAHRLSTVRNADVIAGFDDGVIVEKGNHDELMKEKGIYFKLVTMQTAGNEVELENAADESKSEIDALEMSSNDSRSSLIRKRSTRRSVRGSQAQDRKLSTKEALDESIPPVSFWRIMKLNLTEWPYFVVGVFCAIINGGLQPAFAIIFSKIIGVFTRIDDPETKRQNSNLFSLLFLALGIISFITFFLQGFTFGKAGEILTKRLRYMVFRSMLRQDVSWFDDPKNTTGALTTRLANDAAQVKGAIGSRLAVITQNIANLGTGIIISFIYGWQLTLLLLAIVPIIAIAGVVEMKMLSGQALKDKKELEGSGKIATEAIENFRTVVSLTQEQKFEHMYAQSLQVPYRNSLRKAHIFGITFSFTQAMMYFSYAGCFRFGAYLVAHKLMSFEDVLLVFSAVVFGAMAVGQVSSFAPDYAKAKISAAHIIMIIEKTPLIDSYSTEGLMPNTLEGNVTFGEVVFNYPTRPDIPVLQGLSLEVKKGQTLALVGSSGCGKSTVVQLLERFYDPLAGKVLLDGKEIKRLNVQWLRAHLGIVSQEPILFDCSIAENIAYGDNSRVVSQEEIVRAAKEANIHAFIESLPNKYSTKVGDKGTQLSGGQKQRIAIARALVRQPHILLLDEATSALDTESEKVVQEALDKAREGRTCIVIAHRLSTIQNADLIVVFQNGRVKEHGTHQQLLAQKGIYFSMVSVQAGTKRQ
assay summary: vanadate-sensitive ATPase stimulation in insect cell membranes expressing ABCB1
outcome measure: EC50

Reading of EC50 for `Cn1cc(-c2cc3c(N4CCN(c5ncc([C@@](C)(N)c6ccc(F)cc6)cn5)CC4)ncnn3c2)cn1` with ABCB1 (Homo sapiens, UniProt P08183): ~5 µM

Data provenance: paper PMC6620786
